The measurements presented in this section are drawn from ChEMBL document CHEMBL5113550.

- targetUnderTest: JAK2/JAK1 (Homo sapiens, UniProt O60674+P23458)
- Sequence (P23458 whole entry): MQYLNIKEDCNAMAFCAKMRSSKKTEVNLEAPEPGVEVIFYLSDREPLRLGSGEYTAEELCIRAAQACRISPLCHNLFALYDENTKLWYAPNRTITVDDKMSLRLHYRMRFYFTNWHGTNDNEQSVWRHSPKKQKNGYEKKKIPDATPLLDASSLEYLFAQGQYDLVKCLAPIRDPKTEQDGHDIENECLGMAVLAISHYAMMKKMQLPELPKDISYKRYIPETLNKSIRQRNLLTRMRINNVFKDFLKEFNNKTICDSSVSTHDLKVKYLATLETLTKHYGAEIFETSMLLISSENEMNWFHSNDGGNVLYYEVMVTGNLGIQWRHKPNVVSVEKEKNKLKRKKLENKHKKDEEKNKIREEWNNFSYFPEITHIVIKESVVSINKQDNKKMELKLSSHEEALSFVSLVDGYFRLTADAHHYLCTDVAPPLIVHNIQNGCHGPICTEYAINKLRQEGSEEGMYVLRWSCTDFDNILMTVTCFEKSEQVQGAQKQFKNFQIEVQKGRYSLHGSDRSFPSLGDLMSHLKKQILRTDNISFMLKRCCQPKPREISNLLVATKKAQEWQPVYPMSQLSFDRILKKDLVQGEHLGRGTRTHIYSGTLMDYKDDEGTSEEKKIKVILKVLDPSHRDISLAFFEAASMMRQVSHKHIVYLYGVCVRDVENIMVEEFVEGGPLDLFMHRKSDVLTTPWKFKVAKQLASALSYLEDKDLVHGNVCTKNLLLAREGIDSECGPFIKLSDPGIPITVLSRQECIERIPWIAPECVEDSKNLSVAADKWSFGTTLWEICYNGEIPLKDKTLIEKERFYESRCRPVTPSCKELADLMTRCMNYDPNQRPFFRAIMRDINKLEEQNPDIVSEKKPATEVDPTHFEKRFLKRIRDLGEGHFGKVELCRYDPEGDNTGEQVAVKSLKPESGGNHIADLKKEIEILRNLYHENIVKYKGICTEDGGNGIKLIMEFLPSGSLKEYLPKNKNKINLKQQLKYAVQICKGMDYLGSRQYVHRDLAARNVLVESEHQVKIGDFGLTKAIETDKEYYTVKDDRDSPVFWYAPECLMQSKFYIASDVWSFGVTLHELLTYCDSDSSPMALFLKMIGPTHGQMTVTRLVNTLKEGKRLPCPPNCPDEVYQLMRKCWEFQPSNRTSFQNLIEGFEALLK
- Sequence (O60674 whole entry): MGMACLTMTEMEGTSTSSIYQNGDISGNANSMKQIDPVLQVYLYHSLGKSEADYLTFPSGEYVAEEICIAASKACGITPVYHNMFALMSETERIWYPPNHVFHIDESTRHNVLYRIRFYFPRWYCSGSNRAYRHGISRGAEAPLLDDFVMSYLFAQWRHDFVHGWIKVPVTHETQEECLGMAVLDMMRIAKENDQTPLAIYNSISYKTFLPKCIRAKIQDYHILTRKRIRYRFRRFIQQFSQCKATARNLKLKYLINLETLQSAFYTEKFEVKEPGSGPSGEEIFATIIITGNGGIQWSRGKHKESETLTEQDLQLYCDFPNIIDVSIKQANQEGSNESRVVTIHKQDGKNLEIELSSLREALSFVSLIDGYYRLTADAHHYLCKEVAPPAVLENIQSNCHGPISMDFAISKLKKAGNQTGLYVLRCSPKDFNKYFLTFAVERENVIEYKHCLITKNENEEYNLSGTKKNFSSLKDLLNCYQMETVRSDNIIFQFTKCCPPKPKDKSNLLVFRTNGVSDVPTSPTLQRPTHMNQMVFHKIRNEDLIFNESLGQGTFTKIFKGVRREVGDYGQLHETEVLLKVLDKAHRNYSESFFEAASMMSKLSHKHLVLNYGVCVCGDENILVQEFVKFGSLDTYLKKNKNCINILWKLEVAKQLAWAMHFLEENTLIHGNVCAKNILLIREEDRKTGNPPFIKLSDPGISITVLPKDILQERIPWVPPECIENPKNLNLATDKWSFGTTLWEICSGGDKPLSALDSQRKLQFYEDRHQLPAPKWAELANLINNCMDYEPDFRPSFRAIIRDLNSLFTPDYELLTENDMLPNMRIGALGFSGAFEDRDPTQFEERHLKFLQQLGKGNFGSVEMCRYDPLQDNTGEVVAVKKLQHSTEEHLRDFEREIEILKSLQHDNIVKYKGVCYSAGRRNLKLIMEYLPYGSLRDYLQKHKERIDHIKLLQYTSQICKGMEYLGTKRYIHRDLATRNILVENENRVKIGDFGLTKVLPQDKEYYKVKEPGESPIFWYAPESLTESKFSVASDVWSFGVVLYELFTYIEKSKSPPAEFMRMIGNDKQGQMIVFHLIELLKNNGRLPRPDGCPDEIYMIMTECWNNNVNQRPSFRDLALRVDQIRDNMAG
- measurementDescription: Inhibition of JAK1/JAK2 signaling pathway in human U-937 cells assessed as reduction of IFN-gamma induced ICAM1 expression
readoutLabel: pIC50
API: returns pIC50 as number; meaning -log10 of concentration in mol/L.

### Prompt Which pIC50 value is on record for COc1cc(Nc2ncc(C)c(Nc3ccc4oc(=O)[nH]c4c3)n2)cc(C)c1F [IFIDANCITINIB] ?
### Response 6.38

---

- measurementDescription: Plasma protein binding in human
- Format: ADME, cell-free
- measurementConditions: read-out: PPB (converted)
readoutLabel: fraction unbound

### Prompt Form field: reported fraction unbound of Cc1cnc(Nc2ccc(N3CCN(C)CC3)nc2)nc1Nc1ccc2oc(=O)[nH]c2c1
### Response 0.19
